Biological target: CYP2D6 (Homo sapiens, UniProt P10635)
Sequence (P10635 whole entry): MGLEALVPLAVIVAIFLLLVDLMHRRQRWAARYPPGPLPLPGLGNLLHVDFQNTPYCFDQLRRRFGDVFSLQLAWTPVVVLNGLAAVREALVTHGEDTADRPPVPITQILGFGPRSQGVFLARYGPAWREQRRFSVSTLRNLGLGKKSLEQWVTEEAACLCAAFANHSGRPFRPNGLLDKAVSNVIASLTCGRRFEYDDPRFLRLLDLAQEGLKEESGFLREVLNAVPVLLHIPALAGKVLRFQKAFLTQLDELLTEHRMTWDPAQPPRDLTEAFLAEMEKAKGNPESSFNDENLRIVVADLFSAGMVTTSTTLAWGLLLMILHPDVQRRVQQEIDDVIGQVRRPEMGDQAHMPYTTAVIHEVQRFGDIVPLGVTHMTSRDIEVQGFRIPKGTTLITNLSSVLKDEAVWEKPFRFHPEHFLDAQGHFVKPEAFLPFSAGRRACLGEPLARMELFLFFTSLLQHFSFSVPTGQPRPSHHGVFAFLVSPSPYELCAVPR
Assay: Inhibition of recombinant human CYP2D6 expressed in insect cell microsomes at 10 uM using fluorescence probe as substrate measured after 15 to 45 mins in presence of NADPH by fluorescence assay relative to control
Type: ADME, Microsome
Conditions: time 15-45 min
quantity.name: inhibition at 10 µM (%)
Reply with just the number (in %).

Q. Quote inhibition at 10 µM reported for Cc1cc(C(=O)O)nc(N2CCC(COc3ccccc3C(F)(F)F)C2)n1 (racemic) please.
A. 18.1
